- target.or.test.system: T1, human NMUR2 (human, UniProt Q9GZQ4 1-415)
- T1 construct: whole, on cells; Stably expressed in cells (FLIPR); also called hNMUR2; human R2
- T1 sequence (Q9GZQ4 whole entry): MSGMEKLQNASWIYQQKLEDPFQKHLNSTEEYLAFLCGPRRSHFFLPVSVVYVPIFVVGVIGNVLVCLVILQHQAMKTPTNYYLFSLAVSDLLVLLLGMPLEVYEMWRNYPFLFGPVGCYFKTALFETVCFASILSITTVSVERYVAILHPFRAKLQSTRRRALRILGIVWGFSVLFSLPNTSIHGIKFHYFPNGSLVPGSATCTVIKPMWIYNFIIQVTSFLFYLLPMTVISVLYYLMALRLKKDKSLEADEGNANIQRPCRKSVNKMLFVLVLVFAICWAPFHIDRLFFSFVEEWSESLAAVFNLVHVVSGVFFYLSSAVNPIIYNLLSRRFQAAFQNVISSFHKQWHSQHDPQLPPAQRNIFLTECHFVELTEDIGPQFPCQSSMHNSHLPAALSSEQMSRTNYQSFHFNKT
- assay.protocol: 125I-hNMU-25 displacement, cell membranes
pIC50: −log10 of the molar value. No end group written: not given here.

>  <binder>
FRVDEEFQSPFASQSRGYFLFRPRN-NH2 (also called hNMU-25; native hNMU) [human NMU-25]

>  <pIC50>
10.25

$$$$
